Experiment: Photochromic characteristics of cast polymethyl methacrylate film (coloration under mercury lamp, fading)
Type: physicochemical
Conditions: PMMA film, 1.0×10^-4 mol/g, 0.1 mm; after 60 seconds' irradiation, 35° C.
quantityKind: t1/2 (half-value period of absorbance after irradiation) (s)

>  <compound>
CN1c2cc(N3CCCC3)ccc2C(C)(C)C12C=Nc1c(C(F)(F)F)cc3ncccc3c1O2 (stereo not shown)

>  <readoutNumber>
19

$$$$
>  <compound>
CN1c2ccccc2C2(CC3CCC2C3)C12C=Nc1ccc3cccnc3c1O2 (stereo not shown)

>  <readoutNumber>
18

$$$$
>  <compound>
COc1cc2c(c3ccccc13)OC1(C=N2)N(c2ccccc2)c2ccccc2C12CCCC2 (stereo not shown)

>  <readoutNumber>
17

$$$$
>  <compound>
CCC1(CC)c2cc(C(F)(F)F)ccc2N(Cc2ccccc2)C12C=Nc1cc(Cc3ccccc3)c3c(C)cncc3c1O2 (stereo not shown)

>  <readoutNumber>
18

$$$$
>  <compound>
CCCN1c2ccc(C(F)(F)F)cc2C2(C3CC4CC(C3)CC2C4)C12C=Nc1ccc3ccccc3c1O2 (stereo not shown)

>  <readoutNumber>
18

$$$$
>  <compound>
N#CCN1c2[nH]ccc2C2(CCCCCC2)C12C=Nc1cc(C#N)c3ccccc3c1O2 (stereo not shown)

>  <readoutNumber>
18

$$$$
>  <compound>
CCCCN1c2cc(CC)ccc2C2(CC3CCC2C3)C12C=Nc1c(N)cc3occc3c1O2 (stereo not shown)

>  <readoutNumber>
19

$$$$
>  <compound>
CN1c2c(F)cc(F)cc2C(C)(C)C12C=Nc1ccc3cnccc3c1O2 (stereo not shown)

>  <readoutNumber>
14

$$$$
>  <compound>
COC(=O)CN1c2cc(Cl)ccc2C2(C3CC4CC(C3)CC2C4)C12C=Nc1ccc3cc4ccc(Br)cc4cc3c1O2 (stereo not shown)

>  <readoutNumber>
18

$$$$
>  <compound>
COC(=O)c1cc2ncccc2c2c1N=CC1(O2)N(C)c2c(cc(C(F)(F)F)c(C(F)(F)F)c2C(F)(F)F)C1(C)C (stereo not shown)

>  <readoutNumber>
18

$$$$
>  <compound>
CN1c2ccccc2C2(CCCCC2)C12C=Nc1ccc3cnccc3c1O2 (stereo not shown)

>  <readoutNumber>
17

$$$$
>  <compound>
CN1c2cc3ncc(-c4ccsc4)cc3cc2C2(C3CC4CC(C3)CC2C4)C12C=Nc1ccc3ccccc3c1O2 (stereo not shown)

>  <readoutNumber>
16

$$$$
>  <compound>
CN1c2ccc(Cl)cc2C2(C3CC4CC(C3)CC2C4)C12C=Nc1cc(N3CCCCC3)c3ncccc3c1O2 (stereo not shown)

>  <readoutNumber>
17

$$$$
>  <compound>
CN(C)c1cc2c(c3ccccc13)OC1(C=N2)N(C)c2ccccc2C12CC1CCC2C1 (stereo not shown)

>  <readoutNumber>
18

$$$$
>  <compound>
Cc1cc2c(c3ccnc(C)c13)OC1(C=N2)N(C(C)C)c2cc(Br)ccc2C12CCCCCC2 (stereo not shown)

>  <readoutNumber>
16

$$$$
>  <compound>
Cc1cc2ccncc2c2c1N=CC1(O2)N(C(C)C)c2ccc(Cl)cc2C12CCCC2 (stereo not shown)

>  <readoutNumber>
14

$$$$
>  <compound>
COC(=O)CN1c2cc3ccc([N+](=O)[O-])cc3cc2C2(CC3CCC2C3)C12C=Nc1c(C(F)(F)F)cc3ncccc3c1O2 (stereo not shown)

>  <readoutNumber>
16

$$$$
>  <compound>
COC(=O)c1ccc2c(c1)C(C)(C)C1(C=Nc3ccc4ncccc4c3O1)N2C (stereo not shown)

>  <readoutNumber>
18

$$$$
>  <compound>
CCC1(CC)c2cc(O)cnc2N(C)C12C=Nc1ccc3ncccc3c1O2 (stereo not shown)

>  <readoutNumber>
16

$$$$
>  <compound>
N#Cc1cnc2ccc3c(c2c1)OC1(C=N3)N(CCc2ccccc2)c2ccccc2C12CCCCC2 (stereo not shown)

>  <readoutNumber>
18

$$$$
>  <compound>
CN1c2c(F)cc(F)cc2C2(CCCCC2)C12C=Nc1ccc3cnccc3c1O2 (stereo not shown)

>  <readoutNumber>
15

$$$$
>  <compound>
CN1c2occ(C#N)c2C(C)(C)C12C=Nc1cc(Cc3ccccc3)c3ncc(Br)cc3c1O2 (stereo not shown)

>  <readoutNumber>
18

$$$$
>  <compound>
CN1c2ccccc2C2(CCCCC2)C12C=Nc1ccc3ccccc3c1O2 (stereo not shown)

>  <readoutNumber>
18

$$$$
>  <compound>
CCC1(CC)c2ccc(N(C)C)cc2N(CCc2ccccc2)C12C=Nc1c(Cl)cc3cc(OC)ncc3c1O2 (stereo not shown)

>  <readoutNumber>
19

$$$$
>  <compound>
CN1c2ccccc2C2(CCCCC2)C12C=Nc1cc(Cc3ccccc3)c3ccccc3c1O2 (stereo not shown)

>  <readoutNumber>
18

$$$$
>  <compound>
CN(C)c1cc2c(c3cc4cc[nH]c4cc13)OC1(C=N2)N(C)c2ncc(Cc3ccccc3)cc2C1(C)C (stereo not shown)

>  <readoutNumber>
17

$$$$
>  <compound>
COc1ccc2c(c1)C1(CCCCC1)C1(C=Nc3ccc4cc5[nH]ccc5cc4c3O1)N2C (stereo not shown)

>  <readoutNumber>
17

$$$$
>  <compound>
Cc1cc2ccncc2c2c1N=CC1(O2)N(C(C)C)c2ccc(Cl)cc2C1(C)C (stereo not shown)

>  <readoutNumber>
13

$$$$
>  <compound>
CN1c2ccc([N+](=O)[O-])cc2C2(CCCCC2)C12C=Nc1ccc3ccccc3c1O2 (stereo not shown)

>  <readoutNumber>
18

$$$$
>  <compound>
CN1c2ccccc2C(C)(C)C12C=Nc1ccc3cnccc3c1O2 (stereo not shown)

>  <readoutNumber>
16

$$$$
>  <compound>
CCC1(C)c2cc(OC)ccc2N(Cc2ccccc2)C12C=Nc1cc(-c3ccccc3)c3c(OC)nccc3c1O2 (stereo not shown)

>  <readoutNumber>
17

$$$$
